# TEST_SYSTEM: glucagon receptor (Homo sapiens, UniProt P47871)
# Construct: expressed in transfected cells; host or cells: Chinese Hamster Ovary cells (CHO-HGR), membranes
# Sequence (P47871 26-477): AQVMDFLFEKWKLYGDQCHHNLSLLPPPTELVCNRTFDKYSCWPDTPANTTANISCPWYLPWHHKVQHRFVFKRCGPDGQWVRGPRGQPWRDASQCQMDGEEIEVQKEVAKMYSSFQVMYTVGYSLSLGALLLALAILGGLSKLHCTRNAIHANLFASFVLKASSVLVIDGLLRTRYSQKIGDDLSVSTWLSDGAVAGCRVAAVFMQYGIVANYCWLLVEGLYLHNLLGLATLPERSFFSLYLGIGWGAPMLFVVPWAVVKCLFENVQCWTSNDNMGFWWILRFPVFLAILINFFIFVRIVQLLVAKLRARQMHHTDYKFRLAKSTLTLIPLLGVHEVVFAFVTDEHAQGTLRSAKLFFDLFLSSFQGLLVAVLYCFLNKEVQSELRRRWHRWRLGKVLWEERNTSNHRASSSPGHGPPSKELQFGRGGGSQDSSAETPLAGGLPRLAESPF
# PROTOCOL_SUMMARY: glucagon receptor binding assay (125I-glucagon, CHO-HGR membranes)
# COND: 20 μM; reported where 20 μM did not reduce glucagon binding by 50%
# inhibition at 20 µM binned as Low (below 30%), Medium (30% to below 40%), High (40% or more)

>  <COMPOUND>
C=Cc1c(CC)nc(CC)c(CO)c1-c1ccccc1 [Example 8]

>  <ASSIGNED_CATEGORY>
Low

$$$$
>  <COMPOUND>
CCCCCc1c(C(C)C)nc(C(C)C)c(C(O)CC)c1-c1ccc(F)cc1 (racemic) [Example 117]

>  <ASSIGNED_CATEGORY>
High

$$$$
>  <COMPOUND>
CCCCCc1c(C(C)C)nc(C(C)C)c(C(O)CCCC)c1-c1ccc(F)cc1 (racemic) [Example 115]

>  <ASSIGNED_CATEGORY>
Low

$$$$
>  <COMPOUND>
CCCCC(O)c1c(C(C)C)nc(C(C)C)c(CO)c1-c1ccc(F)cc1 (racemic) [Example 95]

>  <ASSIGNED_CATEGORY>
Low

$$$$
>  <COMPOUND>
CCCCCc1c(C(C)C)nc(C(C)C)c(C(O)C[S@+]([O-])c2ccc(C)cc2)c1-c1ccc(F)cc1 (single isomer, unassigned) [Example 112]

>  <ASSIGNED_CATEGORY>
Low

$$$$
>  <COMPOUND>
CCCC=Cc1c(CC)nc(CC)c(CO)c1-c1ccccc1 [Example 6]

>  <ASSIGNED_CATEGORY>
Medium

$$$$

Category of CC(C)c1nc(C(C)C)c(CN2CCCC2)c(-c2ccc(F)cc2)c1CO [Example 71] , please.
High
